# procedureSummary: Single dose neuro-pk study in rats
# Format: in vivo
# details: plasma; rat, 17 mg/kg single dose; read-out: Total plasma Cmax
assayReadout: Cmax

INSERT INTO measurements (compound, result) VALUES
  ('CC(O)c1ccc(CCOc2ccc(CC3SC(=O)NC3=O)cc2)nc1 (stereo not shown)', '21100 ng/mL');

* * *

# procedureSummary: Phase 1 single ascending dose (SAD) pharmacokinetics in healthy volunteers
# Type: in vivo, human
# details: male, human, plasma, oral, 30 mg, single dose 30 mg Fasted; read-out: Tmax, Observed
assayReadout: Tmax (min)

INSERT INTO measurements (compound, assayreadout, valueunit, measurednumber) VALUES
  ('CC(O)c1ccc(CCOc2ccc(CC3SC(=O)NC3=O)cc2)nc1 (stereo not shown)', 'Tmax', 'min', 37.8);

* * *

# procedureSummary: Phase 1 single ascending dose (SAD) pharmacokinetics in healthy volunteers
# Format: in vivo, human
# details: male, human, plasma, oral, 90 mg, SAD 90 mg fed, n = 3; geometric mean
assayReadout: AUC(0-t) (ng·h/mL)

INSERT INTO assay_data (compound, valueunit, measurednumber) VALUES
  ('CC(=O)c1ccc(CCOc2ccc(CC3SC(=O)NC3=O)cc2)nc1 (centres unmarked)', 'ng·h/mL', 59900),
  ('CC(O)c1ccc(CCOc2ccc(CC3SC(=O)NC3=O)cc2)nc1 (centres unmarked)', 'ng·h/mL', 116000);

* * *

# procedureSummary: Phase 1 single ascending dose (SAD) pharmacokinetics in healthy volunteers
# Type: in vivo, human
# details: male, human, plasma, oral, 90 mg, SAD 90 mg fasted, n = 6; Median; read-out: Tmax
assayReadout: Tmax (min)

INSERT INTO assay_data (compound, measurednumber) VALUES
  ('CC(O)c1ccc(CCOc2ccc(CC3SC(=O)NC3=O)cc2)nc1 (centres unmarked)', 52.8),
  ('CC(=O)c1ccc(CCOc2ccc(CC3SC(=O)NC3=O)cc2)nc1 (centres unmarked)', 37.8);

* * *

# procedureSummary: Phase 1 multiple ascending dose (MAD) pharmacokinetics with CSF collection in healthy volunteers
# Assay type: in vivo, human
# details: male, human, plasma, oral, 270 mg, 270 mg MD Day 8, n = 7; plasma total; geometric mean; read-out: Cmax
assayReadout: Cmax (ng/mL)

INSERT INTO results (compound, valueunit, measurednumber) VALUES
  ('CC(=O)c1ccc(CCOc2ccc(CC3SC(=O)NC3=O)cc2)nc1 (centres unmarked) [Compound M3]', 'ng/mL', 8030),
  ('CC(O)c1ccc(CCOc2ccc(CC3SC(=O)NC3=O)cc2)nc1 (centres unmarked) [Leriglitazone]', 'ng/mL', 17000);

* * *

# procedureSummary: Phase 1 single ascending dose (SAD) pharmacokinetics in healthy volunteers
# Assay type: in vivo, human
# details: male, human, plasma, oral, 270 mg, SAD 270 mg Fed; NCA estimate; read-out: Vss
assayReadout: Vd (L)

INSERT INTO assay_data (molecule, valueunit, measurednumber) VALUES
  ('CC(O)c1ccc(CCOc2ccc(CC3SC(=O)NC3=O)cc2)nc1 (stereo not shown) [Leriglitazone]', 'L', 24.4);

* * *

Overview of reported half-life across a group of molecules:
# procedureSummary: Phase 1 single ascending dose (SAD) pharmacokinetics in healthy volunteers
# Type: in vivo, human
# details: male, human, plasma, oral, SAD; read-out: Half-lives
assayReadout: half-life

INSERT INTO measurements (molecule, result) VALUES
  ('CC(O)c1ccc(CCOc2ccc(CC3SC(=O)NC3=O)cc2)nc1 (centres unmarked)', '23 to 24 h'),
  ('CC(=O)c1ccc(CCOc2ccc(CC3SC(=O)NC3=O)cc2)nc1 (centres unmarked)', '22 to 23 h');
